Reference for the values: PubChem BioAssay AID1963852

Each entry below carries its recorded IC50.
- System: 282377-053-R-J1-PDC complex spheroid viability;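 note: spheroids exposed to compounds for seven days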
- Test Summary: Anticancer human tumor 282377-053-R-J1-PDC patient-derived colon adenocarcinoma cell line growth inhibition [POLQ]
- Details: curve of first compound; second compound 0.0316 µM
Output spec: scalar in nM, unitless text.

CC1COCCN1c1cc(-c2ccnn2C)c2ccnc(-c3ccn[nH]3)c2n1 (stereo not given) + COC1C(OC(N)=O)C(O)C(Oc2ccc3c(O)c(NC(=O)c4ccc(O)c(CC=C(C)C)c4)c(=O)oc3c2C)OC1(C)C | 377
CC1COCCN1c1cc(C2(O)CC3CCC(C2)O3)c2cnn(-c3ccn[nH]3)c2n1 (stereo not given) + COC1C(OC(N)=O)C(O)C(Oc2ccc3c(O)c(NC(=O)c4ccc(O)c(CC=C(C)C)c4)c(=O)oc3c2C)OC1(C)C | 430

We next turn to a different compound, shown below.
For CC1COCCN1c1cc(C2(O)CC3CCC(C2)O3)c2cnn(-c3ccn[nH]3)c2n1 (stereo not given) + Cc1cccc(N(C)C(=O)C2C(O)CCN2c2nc(C)cc(C(F)(F)F)c2C#N)c1 the compound record lists IC50 as 524
